Let's look at some compounds and their measured pEC50.
# system: Peroxisome proliferator-activated receptor gamma (Homo sapiens, UniProt P37231)
# Sequence (P37231 whole entry, the tested form may be a part): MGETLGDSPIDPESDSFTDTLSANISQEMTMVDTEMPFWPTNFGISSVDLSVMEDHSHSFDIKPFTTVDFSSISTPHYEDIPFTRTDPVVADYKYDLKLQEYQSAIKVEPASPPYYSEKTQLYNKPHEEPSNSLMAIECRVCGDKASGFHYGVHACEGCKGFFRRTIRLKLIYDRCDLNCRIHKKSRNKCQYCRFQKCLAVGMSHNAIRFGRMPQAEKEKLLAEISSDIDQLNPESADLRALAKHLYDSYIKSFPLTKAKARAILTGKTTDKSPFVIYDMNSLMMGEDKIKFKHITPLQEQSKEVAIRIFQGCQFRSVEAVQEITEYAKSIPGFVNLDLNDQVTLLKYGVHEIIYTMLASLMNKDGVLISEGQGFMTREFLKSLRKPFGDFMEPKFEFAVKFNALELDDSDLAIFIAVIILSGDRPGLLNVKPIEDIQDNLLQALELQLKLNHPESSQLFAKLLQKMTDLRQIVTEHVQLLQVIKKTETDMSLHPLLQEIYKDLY
# testDetails: Agonist activity at GAL4-DNA binding domain fused human PPARgamma ligand binding domain expressed in human HepG2 cells assessed as receptor transactivation incubated for 20 hrs by luciferase reporter gene assay
# Type: cell-based
# reportedConditions: read-out: EC50
By convention, pEC50 is the negative base-10 log of a molar concentration.

Sample CO/N=C/c1ccc(OC(Cc2ccccc2)C(=O)O)cc1 (racemic) — what was its pEC50? 4.89

And for CC(C)CO/N=C/c1ccc(OC(Cc2ccccc2)C(=O)O)cc1 (racemic) ? 5.35

Next entry: O=C(O)C(Cc1ccccc1)Oc1ccc(/C=N/OCCc2ccccc2)cc1 (racemic) 5.74

Please do the same for CC(C)O/N=C/c1ccc(OC(Cc2ccccc2)C(=O)O)cc1 (racemic) as well. 5.25

Item: O=C(O)[C@H](Cc1ccccc1)Oc1ccc(/C=N/O)cc1 4.55

Okay, and O=C(O)C(Cc1ccccc1)Oc1ccc(/C=N/OCCCc2ccccc2)cc1 (racemic) ? 5.90

Same thing, different compound: CCCO/N=C/c1ccc(O[C@@H](Cc2ccccc2)C(=O)O)cc1 5.42

Now the compound O=C(O)C(Cc1ccccc1)Oc1ccc(/C=N/OCc2ccccc2)cc1 (racemic) 5.68

Now consider O=C(O)C(Cc1ccccc1)Oc1ccc(/C(=N/O)c2ccccc2)cc1 (racemic) and answer again. 4.91

Another compound to look at: C/C(=N\O)c1ccc(OC(Cc2ccccc2)C(=O)O)cc1 (racemic) 5.03

Same thing, different compound: CCCO/N=C(\c1ccccc1)c1ccc(OC(Cc2ccccc2)C(=O)O)cc1 (racemic) 6.00

====

# system: Peroxisome proliferator-activated receptor alpha (Homo sapiens)
# Sequence (Q07869 whole entry): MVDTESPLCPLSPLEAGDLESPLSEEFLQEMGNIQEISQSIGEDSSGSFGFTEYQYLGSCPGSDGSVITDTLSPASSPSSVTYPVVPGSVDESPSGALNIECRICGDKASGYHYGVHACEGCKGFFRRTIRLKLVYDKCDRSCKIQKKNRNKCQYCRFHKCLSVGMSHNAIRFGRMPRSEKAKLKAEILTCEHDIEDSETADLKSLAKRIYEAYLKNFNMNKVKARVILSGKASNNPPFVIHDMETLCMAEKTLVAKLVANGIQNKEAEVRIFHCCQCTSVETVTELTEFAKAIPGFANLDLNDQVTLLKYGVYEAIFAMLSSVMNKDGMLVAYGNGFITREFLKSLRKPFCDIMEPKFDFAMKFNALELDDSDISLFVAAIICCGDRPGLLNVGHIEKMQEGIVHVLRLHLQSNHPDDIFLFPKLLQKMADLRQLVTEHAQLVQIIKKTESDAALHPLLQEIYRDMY
# testDetails: Agonist activity at GAL4-DNA binding domain fused human PPARalpha ligand binding domain expressed in human HepG2 cells assessed as receptor transactivation incubated for 20 hrs by luciferase reporter gene assay
# Type: cell-based
# reportedConditions: read-out: EC50
Cut-off 4 µM on EC50: below means Met, at or above means Not met.

INSERT INTO assay_data (molecule, classification) VALUES
  ('CCCO/N=C(\c1ccccc1)c1ccc(OC(Cc2ccccc2)C(=O)O)cc1 (racemic)', 'Met');

Determine whether this molecule shows EC50 lower than 4 µM (ties excluded): O=C(O)C(Cc1ccccc1)Oc1ccc(/C=N/OCc2ccccc2)cc1 (racemic) Not met

Try the molecule O=C(O)C(Cc1ccccc1)Oc1ccc(/C=N/OCCc2ccccc2)cc1 (racemic) Met

Also check CCCO/N=C/c1ccc(O[C@@H](Cc2ccccc2)C(=O)O)cc1 Met

Check CO/N=C/c1ccc(OC(Cc2ccccc2)C(=O)O)cc1 (racemic) too. Not met

====

# system: Peroxisome proliferator-activated receptor gamma (Homo sapiens, UniProt P37231)
# testDetails: Agonist activity at GAL4-DNA binding domain fused human PPARgamma ligand binding domain expressed in human HepG2 cells assessed as receptor transactivation incubated for 20 hrs by luciferase reporter gene assay
# Format: cell-based
# reportedConditions: read-out: EC50
measurementLabel: EC50 (µM)
Please state the figure in µM; there is no need to write the unit.

As a guide, the following entries are already answered.
INSERT INTO assay_data (compound, system, measurementlabel, result) VALUES
  ('CCCCO/N=C/c1ccc(OC(Cc2ccccc2)C(=O)O)cc1 (racemic)', 'Peroxisome proliferator-activated receptor gamma (Homo sapiens, UniProt P37231)', 'EC50', 3.65),
  ('CCCO/N=C(/c1ccccc1)c1ccc(OC(Cc2ccccc2)C(=O)O)cc1 (racemic)', 'Peroxisome proliferator-activated receptor gamma (Homo sapiens, UniProt P37231)', 'EC50', 0.68),
  ('CCCO/N=C/c1ccc(OC(Cc2ccccc2)C(=O)O)cc1 (racemic)', 'Peroxisome proliferator-activated receptor gamma (Homo sapiens, UniProt P37231)', 'EC50', 7.9);

From here, focus on the item given below.
Form entry - test system: Peroxisome proliferator-activated receptor gamma (Homo sapiens, UniProt P37231); read-out: EC50; compound: O=C(O)C(Cc1ccccc1)Oc1ccc(/C=N/O)cc1 (racemic) 43
